Exercise: state measured kon for each of the binders provided.
SYSTEM UNDER TEST: T1, mature recombinant human GDF-15 with an N-terminal Flag and His tag, biotinylated (human, UniProt Q99988 197-308, chemically biotinylated with EZ link Sulfo-NHS-LC-Biotin, sites not stated)
T1 construct: not shown: N-terminal Flag and His tags
T1 sequence: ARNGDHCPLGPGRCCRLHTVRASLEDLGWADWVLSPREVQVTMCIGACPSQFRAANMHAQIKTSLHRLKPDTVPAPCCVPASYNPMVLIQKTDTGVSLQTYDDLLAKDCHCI
EXPERIMENTAL DETAILS: SPR Biacore 8K, 25 C, biotinylated GDF-15 on streptavidin C1 chip, Fab as analyte
The number alone won't do; follow it with the unit.

[[record]]
binder = "AB1170241 Fab (Fab, V domains shown, Fab of the humanized antibody, expressed as in Spooner et al. 2015) VH: QVQLVQSGSELKKPGASVKVSCKASGYTFTDYNMDWIRQSPGKGLEWIGDINPNQGGTFYNQKFKDRATLTVDKSTSTAYMELRSLRSDDTAVYYCAREEKLYFGLMDYWGQGTTVTVSS VL: DIQMTQSPSSLSASVGDRVTITCRASENIYSYLAWYQQKPGKAPKLLVYNAKTLAEGVPSRFSGSGSGIDFTLTISSLQPEDFATYYCQHQYGSPPTFGQGTKLEIK"
observed_property = "kon"
observed_result = "4.18e+06 M⁻¹ s⁻¹"


# next binder below
Need kon of AB1520085 Fab (Fab, V domains shown, Fab of the anti-mouse GDF-15 mouse IgG1, expressed as in Spooner et al. 2015) VH: QVQLQQPGAELVMPGASVKMSCKASGYTFTDYWMHWVKQRPGQGLEWIGVIDTSESYTSYNQKFKGKATLTVDESSSTAYMQLSSLTSEDSAVYFCARGGTTVVLDYWGQGTTLTVSS VL: DIVMTQSQKFMSTSVGDRVSVTCKASQNVGTAVAWYQKKPGQSPKALIYSASTRYTGVPDRFTGSGSGTDFTLTISNVQSEDLAEYFCQQYSSSPWTFGGGTKLELK , thanks. 2.97e+06 M⁻¹ s⁻¹
